The reported numbers originate from the RNAGym collection of RNA variant scans (doi:10.1093/nar/gkz1192).

B1: CPEB3 Ribozyme (parent)
chain: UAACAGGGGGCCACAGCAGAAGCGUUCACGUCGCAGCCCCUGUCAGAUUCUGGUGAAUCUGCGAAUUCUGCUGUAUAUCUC

Variants of: B1
Assay: self-cleavage, relative activity (ratio to wild type); higher = more cleavage; in vitro, sequencing
experimental.readout: self-cleavage
Keep it simple and answer with nothing but the number.

Example cases with answers are listed next.
variant_spec="A5G C81A" assay_result=1.1
variant_spec="C4A G8A" assay_result=0.47
variant_spec="G7A G46A" assay_result=0.07
variant_spec="A56U A57U" assay_result=0.59
variant_spec="U49A A77U" assay_result=0.9
variant_spec="C23U A47G" assay_result=0.18
variant_spec="A2C U72C" assay_result=0.9

As a next step, examine the variant that follows.
// field: self-cleavage; key: U26A A65G ; value = 0.38
